- experimental.target: T1, non-activatable Factor X (FXn) (Homo sapiens (Human), UniProt P00742 41-488, single biotin on the C-terminal BioTag)
- T1 construct: also called BIIB-FX-015
- assay: BLI; class meaning: paragraph 285
reported.metric: binding result

BIIB-12-908 (antibody, V domains shown, IgG) VH: QVQLVESGGGVVQPGRSLRLSCAASGFTFSSYGMHWVRQAPGKGLEWVAVISYDGSNKYYADSVKGRFTISRDNSKNTLYLQMNSLRAEDTAVYYCAKGPRGMDVWGQGTTVTVSS VL: DIQLTQSPSSVSASVGDRVTITCRASQGISSWLAWYQQKPGKAPKLLIYGASSLQSGVPSRFSGSGSGTDFTLTISSLQPEDFATYYCQQGSSLPITFGGGTKVEIK: binds
BIIB-12-1315 (antibody, V domains shown, IgG) VH: QVQLVQSGAEVKKPGASVKVSCKASGYTFTSYYMVWVRQAPGQGLEWMGIINPSGGSTSYAQKFQGRVTMTRDTSTSTVYMELSSLRSEDTAVYYCARGRPSSKRVTYFDYWGQGTLVTVSS VL: EIVMTQSPATLSVSPGERATLSCRASQSVSSNLAWYQQKPGQAPRLLIYGASTRATGIPARFSGSGSGTEFTLTISSLQSEDFAVYYCQQVFNWPPWTFGGGTKVEIK: binds
BIIB-12-1291 (antibody, V domains shown, IgG) VH: QVQLVQSGAEVKKPGASVKVSCKASGYTFTSYYMHWVRQAPGQGLEWMGIINPSGGSTSYAQKFQGRVTMTRDTSTSTVYMELSSLRSEDTAVYYCARSRRMWVGYFDLWGRGTLVTVSS VL: EIVLTQSPATLSLSPGERATLSCRASQSVSSYLAWYQQKPGQAPRLLIYDASNRATGIPARFSGSGSGTDFTLTISSLEPEDFAVYYCQQRLNLPLTFGGGTKVEIK: binds
